Measured metric: logP

Worked examples, 3 compounds total:
Ask: So what does the record say about logP for `COc1cccc(Cc2cnc(-c3ccccc3)c(-c3ccccc3)n2)c1` ?
Result: 5.2

Ask: What logP value was documented for this compound, `Cc1nc(Cl)c(C)[n+]([O-])c1Cl` ?
Result: 1.08

Ask: What value of logP has been recorded for this entry: `Cc1ccc(-c2nccnc2-c2ccc(C)cc2)cc1`
Result: 4.1

1: Cc1ncc(-c2ccccc2)nc1-c1ccccc1
2: Cc1ncc(C)[n+]([O-])c1Cl
Ask: Sorting by logP in descending order, would 1 or 2 appear first? Reply with the label of the item you choose.
Result: 1

A: Cc1cnc(-c2ccc(F)cc2)c(-c2ccc(F)cc2)n1
B: Cc1cnc(-c2ccc(C#N)cc2)c(-c2ccc(C#N)cc2)n1
C: Cc1c[n+]([O-])c(C)c(Cl)n1
Ask: Ascending by logP, please: list the compounds accordingly. Would you mind listing the labels in the order requested?
Result: C, B, A

a: CCc1cnc(-c2ccc(OC)cc2)c(-c2ccc(OC)cc2)n1
b: Cc1nc(Cl)c(C)nc1Cl
Ask: Which value of logP is numerically greater: that of a or that of b ? Provide the label of your selected option as the answer.
Result: a
(a: 4.22, b: 2.4)

1: c1ccc(-c2nccnc2-c2ccccc2)cc1
2: CC(C)c1cnc(-c2ccccc2)c(-c2ccccc2)n1
Ask: Compare 1 and 2 by numeric logP and name the larger one. # reply format: chosen label
Result: 2
(2: 4.71, 1: 3.19)

P: COc1ccc(-c2ncc(C)nc2-c2ccc(OC)cc2)cc1
Q: c1ccc(-c2cnccn2)cc1
Ask: Pick one, P or Q : lowest reported logP. Write the label of whichever entry you select.
Result: Q

I: COc1ccc(-c2nccnc2-c2ccc(OC)cc2)cc1
II: CCOc1cnc(-c2ccc(OC)cc2)c(-c2ccc(OC)cc2)n1
Ask: Could you kindly indicate whether I or II has the higher logP value? Could you answer with the label of the item you picked?
Result: II

---

Measured metric: logP

Ask: Given the entry `COc1ccccc1Cc1cnc(-c2ccccc2)c(-c2ccccc2)n1` , report its measured logP.
Result: 5.18

Ask: Suppose we examine the compound `[O-][n+]1cc(Cl)nc(-c2ccc(Cl)cc2)c1-c1ccc(Cl)cc1` ; what logP value has been reported?
Result: 3.66

Ask: Fill blank: measured logP of the compound `COc1ccc(-c2nc(C)c(C)nc2-c2ccc(OC)cc2)cc1` is ____.
Result: 4.1

Ask: I'd like to know its logP. The compound in question is `COc1cnc(-c2ccccc2)c(-c2ccccc2)n1`
Result: 4.21

P: COc1ccc(-c2ncc(C#N)nc2-c2ccc(OC)cc2)cc1
Q: COc1ccc(-c2cnccn2)cc1
Ask: // returns P or Q , whichever has the lower logP // return label of chosen record
Result: Q
(Q: 2.24, P: 3.7)

---

Measured metric: logP

Ask: Would you mind telling me what logP value was observed for `CCOc1cnc(-c2ccccc2)c(-c2ccccc2)n1` ?
Result: 4.73

Ask: Which value of logP has been reported for `[O-][n+]1ccnc(-c2ccc(Br)cc2)c1-c1ccc(Br)cc1` in the records?
Result: 3.41

Ask: Looking for the measured logP of `CCc1ncc(-c2ccccc2)nc1-c1ccccc1` , can you help?
Result: 4.66

Ask: Would you mind telling me what logP value was observed for `CCc1nc(CC)c(-c2ccccc2)nc1-c1ccccc1` ?
Result: 4.83

Ask: Any idea what its logP is? The compound is `COC(=O)c1cnc(-c2ccc(OC)cc2)c(-c2ccc(OC)cc2)n1`
Result: 3.41

Ask: Recorded logP of `COc1ccc(-c2ncc(OC)nc2-c2ccc(OC)cc2)cc1` , please.
Result: 4.47

Ask: What value of measured logP is listed for `COc1ccc(-c2ncc(Cl)nc2-c2ccc(OC)cc2)cc1` ?
Result: 4.3

Ask: What value of logP has been reported for the following compound? `Clc1cnc(-c2ccccc2)c(-c2ccccc2)n1`
Result: 4.05

Ask: Could you share which logP value was measured for `Cc1nc(-c2ccccc2)cnc1-c1ccccc1` ?
Result: 4.28

Ask: Given the compound `Cc1cnc(-c2ccccc2)c(-c2ccccc2)n1` , what is its reported logP?
Result: 3.52
